- System: IL-17F
- run-description: Cytokine release after LPS induction on human whole blood: IL-17F
- Format: cell-based
- condition-notes: human whole blood, inhibition of LPS induced inflammation; read-out: IC50 IL-17F
experimental-endpoint: IC50 (µM)
Field: numeric (µM). Do not append units.

Prompt: Give IL-17F IC50 for O=C(O)c1cc(O)c(C(=O)Nc2ccccc2-c2nnn[nH]2)cc1O [Ia-001a-Tz]
Completion: 46.5

Prompt: Give IL-17F IC50 for O=C(O)c1cc(NC(=O)c2cc(O)c(C(=O)O)cc2O)cc(NC(=O)c2cc(O)c(C(=O)O)cc2O)c1 [Ib-010a]
Completion: 100

Prompt: Give IL-17F IC50 for CCOC(=O)c1cc(NC(=O)c2cc(O)c(C(=O)OCC)cc2O)cc(NC(=O)c2cc(O)c(C(=O)OCC)cc2O)c1 [Ib-010a-E3]
Completion: 34.2

Prompt: Give IL-17F IC50 for O=C(O)Cc1cc(O)c(C(=O)Nc2c(C(=O)O)cccc2C(=O)O)cc1O [IIIa-013a]
Completion: 0.41

###

- Tested on: thioglycolate-induced peritonitis
- run-description: Thioglycolate-induced peritonitis murine model
- Assay type: in vivo, C57BL/6J mice
- condition-notes: 50 mg/kg i.p. 1 h prior to thioglycolate
- Procedure: Therapeutic efficacy of the compounds of the present invention was assessed using thioglycolate-induced peritonitis murine models as described by Cook A D et al. (J Immunol. 2003; 171(9):4816-4823) and Tsai J M et al. (Blood Adv. 2019; 3(18):2713-2721. doi: 10.1182/bloodadvances.2018024026). C57BL/6J mice were injected intraperitoneally (i.p.) with 1 mL of compounds at 50 mg/kg 1 h prior to the induction of peritonitis. […] Cell viability was measured by 7-AAD exclusion. […]
experimental-endpoint: % of reduction, CD8+ lymphocytes, treated over vehicle treated mice (%)
Field: numeric (%). Do not append units.

Prompt: Name the recorded % of reduction, CD8+ lymphocytes, treated over vehicle treated mice for O=C(O)c1cc(O)cc(CS(=O)(=O)Cc2cc(O)cc(C(=O)O)c2O)c1O [IVc-059a] .
Completion: 23.0

Prompt: Name the recorded % of reduction, CD8+ lymphocytes, treated over vehicle treated mice for O=C(O)c1cc(NC(=O)c2cc(O)cc(C(=O)Nc3ccc(O)c(C(=O)O)c3)c2O)ccc1O [IIc-007a] .
Completion: 20.0

Prompt: Name the recorded % of reduction, CD8+ lymphocytes, treated over vehicle treated mice for O=C(O)c1cc(NC(=O)c2cc(O)c(C(=O)Nc3ccc(O)c(C(=O)O)c3)cc2O)ccc1O [Ic-007a] .
Completion: 71

Prompt: Name the recorded % of reduction, CD8+ lymphocytes, treated over vehicle treated mice for O=C(O)c1cc(O)c(CN(Cc2cc(O)c(C(=O)O)cc2O)Cc2cc(O)c(C(=O)O)cc2O)cc1O [IIIc-061a] .
Completion: 33.3

###

Answer each item with its documented IC50.
- Tested on: IL-21
- run-description: Cytokine release after LPS induction on human whole blood: IL-21
- Type: cell-based
- condition-notes: human whole blood, inhibition of LPS induced inflammation; read-out: IC50 IL-21
Field: numeric (µM). Do not append units.

Prompt: Name the recorded IC50 for COC(=O)c1cc(OC(C)=O)cc(CS(=O)(=O)Cc2cc(OC(C)=O)cc(C(=O)OC)c2OC(C)=O)c1OC(C)=O [IVc-059a-E2-A4] .
Completion: 100

Prompt: Name the recorded IC50 for O=C(O)c1cc(NC(=O)c2cc(O)c(C(=O)O)cc2O)cc(NC(=O)c2cc(O)c(C(=O)O)cc2O)c1 [Ib-010a] .
Completion: 67.8

Prompt: Name the recorded IC50 for O=C(O)c1cc(NC(=O)c2cc(O)cc(C(=O)Nc3ccc(O)c(C(=O)O)c3)c2O)ccc1O [IIc-007a] .
Completion: 9.41

Prompt: Name the recorded IC50 for O=C(O)c1cc(O)c(C(=O)Nc2ccccc2S(=O)(=O)O)cc1O [Ia-001c] .
Completion: 100

Prompt: Name the recorded IC50 for O=C(O)c1cc(O)c(C(=O)Nc2ccccc2C(=O)O)cc1O [Ia-001a] .
Completion: 100

Prompt: Name the recorded IC50 for O=C(O)Cc1cc(O)c(C(=O)Nc2ccccc2-c2nnn[nH]2)cc1O .
Completion: 3

Prompt: Name the recorded IC50 for O=C(O)c1cc(NC(=O)c2cc(O)c(C(=O)O)cc2O)cc(C(=O)O)c1 [Ia-015a] .
Completion: 57.2

Prompt: Name the recorded IC50 for O=C(O)c1cc(O)c(C(=O)Nc2ccc(-c3nnn[nH]3)cc2)cc1O [Ia-003a-Tz] .
Completion: 1.49
